TEST METHOD NOTES: Human HepG2 cell viability assay in 384 well format
Format: toxicity, cell-based
Design: dose 125 nL, time 70.5 hour; concentration not given beside the values
SETUP CONDITIONS: HepG2 cells, read-out: Inhibition
MEASUREMENT NAME: cytotoxicity at 70.5 h (%)
Answer in %, number only, no unit symbol.

Field cytotoxicity at 70.5 h (entry `O=C(c1cc(Cn2ccc3ccccc32)[nH]n1)N1CCOCC1` ) reads -0.75

Field cytotoxicity at 70.5 h (entry `Cn1cc(Cl)cc1C(=O)N1CCN(Cc2cccs2)CC1` ) reads -12.6

Field cytotoxicity at 70.5 h (entry CC(Cc1ccco1)NC(=O)CCn1cccn1 (configuration not stated) ) reads -14.7

Field cytotoxicity at 70.5 h (entry `CN(C)C(=O)c1cccn1-c1ccc2c(c1)OCCO2` ) reads -2.2

Field cytotoxicity at 70.5 h (entry `COCCn1cnnc1CNc1cc(C)nc2c(C)c(C)nn12` ) reads -5.61

Field cytotoxicity at 70.5 h (entry `COc1ccc([C@@H]2C[C@H](NC(C)=O)C[C@H](CCc3ccccc3)O2)cn1` ) reads -4.78

Field cytotoxicity at 70.5 h (entry CN(C)c1nccc(C2CCCN2S(=O)(=O)c2cn(C)cn2)n1 (configuration not stated) ) reads -15.2

Field cytotoxicity at 70.5 h (entry COC1(CNS(=O)(=O)c2ccccc2Br)CCSC1 (configuration not stated) ) reads -4.04

Field cytotoxicity at 70.5 h (entry `COc1cccc2c(=O)n(Cc3ccnc(C)c3)cnc12` ) reads -26.7

Field cytotoxicity at 70.5 h (entry O=C(c1ccc(N2CCOCC2)nc1)N1CCCC(n2cccn2)C1 (configuration not stated) ) reads -13.9

Field cytotoxicity at 70.5 h (entry `CCn1nc(CC(C)C)cc1C(=O)NCCn1cccc1` ) reads -2.38

Field cytotoxicity at 70.5 h (entry O=C(c1cccnc1N1CCOC(c2ccc(Cl)cc2)C1)N1CCCC1 (configuration not stated) ) reads -5.24

----------
TEST METHOD NOTES: Human HepG2 cell viability assay in 384 well format
Type: toxicity, cell-based
Design: dose 125 nL, time 70.5 hour; concentration not given beside the values
SETUP CONDITIONS: HepG2 cells, read-out: Inhibition
MEASUREMENT NAME: cytotoxicity at 70.5 h (%)
Answer in %, number only, no unit symbol.

Field cytotoxicity at 70.5 h (entry `CCc1nncn1CCNC(=O)Nc1ccc(OC)c(C)c1` ) reads -7.19

Field cytotoxicity at 70.5 h (entry `O=C(COC[C@H]1CC[C@H]2[C@H](CCN2c2ncccn2)O1)N1CCCC1` ) reads -3.63

Field cytotoxicity at 70.5 h (entry `COC1CCN(c2ccc(F)cc2CN(C)S(C)(=O)=O)CC1` ) reads -8.29

Field cytotoxicity at 70.5 h (entry `Cn1ccnc1CN1CCN(Cc2ccc(C#N)cc2)CC1` ) reads -2.96

Field cytotoxicity at 70.5 h (entry `C[C@@H]1CN(C(=O)CCCn2nnc(-c3ccc(F)cc3)n2)C[C@]1(C)O` ) reads 22.7

Field cytotoxicity at 70.5 h (entry `Fc1ccc(CN2C[C@@H]3OCCN(CCN4CCCC4)[C@@H]3C2)cc1` ) reads -6.53

Field cytotoxicity at 70.5 h (entry CC(C)CN1CC2(CCN(C(=O)C(O)c3cccc(Cl)c3)CC2)CC1=O (centres undefined) ) reads 1.55

Field cytotoxicity at 70.5 h (entry COCC(C)NC(=O)N(C)Cc1cc(C)on1 (centres undefined) ) reads -5.5

Field cytotoxicity at 70.5 h (entry Cc1ccc2oc(=O)n(CCC(=O)N3CCCC4(CNC(=O)O4)C3)c2c1 (centres undefined) ) reads -1.82

Field cytotoxicity at 70.5 h (entry `CCOc1ccccc1OC1CCN(C(=O)c2c[nH]nn2)CC1` ) reads -0.281

Field cytotoxicity at 70.5 h (entry `CCC(=O)N1CCN(C(=O)Nc2ccccc2-c2cccs2)CC1` ) reads -5.63

Field cytotoxicity at 70.5 h (entry `CN1C(=O)CC[C@]12CC[C@@H](NCc1ccsc1)CC2` ) reads -5.76

Field cytotoxicity at 70.5 h (entry `COC(=O)c1ccccc1C(=O)N(CCN(C)C)Cc1sccc1C` ) reads -7.74

Field cytotoxicity at 70.5 h (entry `COc1ccc(CN(Cc2cnn(C)c2)CC(C)C)cn1` ) reads -6.19

Field cytotoxicity at 70.5 h (entry `Cc1ccccc1OC1CCN(CC(=O)Nc2ccn(C)n2)CC1` ) reads -7.79

Field cytotoxicity at 70.5 h (entry `CC(C)N(C)Cc1cc(=O)n2c(n1)CN(S(=O)(=O)C1CC1)CCC2` ) reads -7.06

Field cytotoxicity at 70.5 h (entry Cn1ccc(C(=O)N2CCC(Cc3cnc4[nH]ccc4c3)C2)n1 (centres undefined) ) reads -7.96

Field cytotoxicity at 70.5 h (entry Cc1nc(C)n(CC2CCCN2CCc2cccs2)n1 (centres undefined) ) reads 39.6

Field cytotoxicity at 70.5 h (entry CC(=O)N1CCCC(c2ccc(Nc3nc(C)cc(C)n3)cn2)C1 (centres undefined) ) reads -12

Field cytotoxicity at 70.5 h (entry `Cc1ncsc1-c1nnc(C2CCN(Cc3ccccc3Cl)CC2)o1` ) reads -0.461

Field cytotoxicity at 70.5 h (entry Cc1cccc(C(=O)N2CCC3(CC2)CC(c2cnn(C)c2)CO3)c1 (centres undefined) ) reads -15

Field cytotoxicity at 70.5 h (entry CN(CCCc1nccn1C)c1nccc(N2CCC(O)C2)n1 (centres undefined) ) reads 7.29

Field cytotoxicity at 70.5 h (entry `NC(=O)N1CCC(NCc2cc(C(F)(F)F)ccc2Cl)CC1` ) reads -5.57

Field cytotoxicity at 70.5 h (entry CC(C)C(C)N(C(=O)c1cc2c([nH]c1=O)CCCC2=O)C1CC1 (centres undefined) ) reads -7.9

----------
TEST METHOD NOTES: Human HepG2 cell viability assay in 384 well format
Assay type: toxicity, cell-based
Set-up: dose 125 nL, time 70.5 hour; concentration not given beside the values
SETUP CONDITIONS: HepG2 cells, read-out: Inhibition
MEASUREMENT NAME: cytotoxicity at 70.5 h (%)
Answer in %, number only, no unit symbol.

Field cytotoxicity at 70.5 h (entry CCC(=O)c1ccc(OCC(=O)NCC2CCCO2)cc1 (configuration not stated) ) reads 0.0654

Field cytotoxicity at 70.5 h (entry `Cc1occc1C(=O)N1CCC2(CCC(=O)N(CC(N)=O)C2)CC1` ) reads -2.77

Field cytotoxicity at 70.5 h (entry `Cc1nc(CN2CCc3nc(N4CCCC4)nc(NC(C)C)c3C2)cs1` ) reads -3.99

Field cytotoxicity at 70.5 h (entry `Cc1cnccc1N1CCCN(C(=O)CCCS(N)(=O)=O)CC1` ) reads 3.54

Field cytotoxicity at 70.5 h (entry `Cc1ccnc2c1NC(=O)CN2C(=O)CCc1cccs1` ) reads -5.29

Field cytotoxicity at 70.5 h (entry `COc1cccc2c3c(c(=O)[nH]c12)CCC(C)(C)O3` ) reads -5.31

Field cytotoxicity at 70.5 h (entry CCC(CO)N(Cc1ccco1)Cc1c(C)nn(C)c1Cl (configuration not stated) ) reads 3.17

Field cytotoxicity at 70.5 h (entry `CN(C)CCO[C@H]1CN(Cc2ccoc2)[C@@H]2COC[C@H]12` ) reads 6.76

Field cytotoxicity at 70.5 h (entry CCN(Cc1ccncc1)CC1(O)CCN(C(=O)c2ccccc2C)C1 (configuration not stated) ) reads -2.28

Field cytotoxicity at 70.5 h (entry `Cc1cc(-c2cnc(N3CCN(C)CC3)nc2C(C)C)on1` ) reads -3.07

Field cytotoxicity at 70.5 h (entry `Cc1ccc(C(=O)N2CCN(c3ccnc4ccsc34)CC2)o1` ) reads -12

Field cytotoxicity at 70.5 h (entry `CCc1ncc(C(=O)N2CCCN(C3CCCCC3)CC2)cn1` ) reads 10.7

----------
TEST METHOD NOTES: Human HepG2 cell viability assay in 384 well format
Assay type: toxicity, cell-based
Parameters: dose 125 nL, time 70.5 hour; concentration not given beside the values
SETUP CONDITIONS: HepG2 cells, read-out: Inhibition
MEASUREMENT NAME: cytotoxicity at 70.5 h (%)
Answer in %, number only, no unit symbol.

Field cytotoxicity at 70.5 h (entry Cc1cnn(CC2CN(CCc3ccncc3)CCO2)c1 (centres undefined) ) reads 0.973

Field cytotoxicity at 70.5 h (entry `O=C(NC1CC1)[C@H]1C[C@H]2OCC[C@H]2N(CC2CC2)C1` ) reads 13.9

Field cytotoxicity at 70.5 h (entry `CCOCc1nnc(NCc2cccnc2)o1` ) reads -7.36

Field cytotoxicity at 70.5 h (entry Cc1cc(C(=O)N2CCCC2)ccc1NCC(=O)N1CCCCC1C (centres undefined) ) reads 7.01

Field cytotoxicity at 70.5 h (entry `CS(=O)(=O)N1C[C@H]2CCC[C@@]2(COCC2CCOCC2)C1` ) reads -4.48

Field cytotoxicity at 70.5 h (entry `CS(=O)(=O)CCCC(=O)N1CCN(CC2CC2)c2ccccc21` ) reads -7.11

Field cytotoxicity at 70.5 h (entry Cc1nc(CC(=O)N(C)C2CCCN(CCc3ccccc3)C2)cs1 (centres undefined) ) reads -4.36

Field cytotoxicity at 70.5 h (entry `CC(C)n1nc2c(cc1=O)CN(c1ncnc3ccsc13)CC2` ) reads 13.9

Field cytotoxicity at 70.5 h (entry `CCn1c(C(=O)N2CCN(C(=O)NC(C)C)CC2)cc2ccccc21` ) reads -9.47

Field cytotoxicity at 70.5 h (entry `Cc1nc(N2CCN(S(C)(=O)=O)CC2)cc(-n2cnc(C)c2C)n1` ) reads -3.21

Field cytotoxicity at 70.5 h (entry `CCn1cnnc1CNC(=O)N1CCN(c2cccc(C)c2)CC1` ) reads -7.02

Field cytotoxicity at 70.5 h (entry `Cc1ncc(CN(C)C(=O)Nc2cccc(N3CCOC3=O)c2)s1` ) reads 25

Field cytotoxicity at 70.5 h (entry `Cc1nnc(NCC2(c3ccccc3)CCOCC2)c(C#N)c1C` ) reads 16.6

Field cytotoxicity at 70.5 h (entry `Cn1c(CO)nnc1CC1CCN(Cc2ccc(C#N)cc2)CC1` ) reads -1.35

Field cytotoxicity at 70.5 h (entry `CN1CCN(c2cc(CNC(=O)c3ccc(Cl)o3)ccn2)CC1` ) reads -3.02

Field cytotoxicity at 70.5 h (entry CNC(=O)c1n[nH]c2c1C(c1cccc3[nH]ccc13)CC(=O)N2 (centres undefined) ) reads -3.23

Field cytotoxicity at 70.5 h (entry `c1cc(-c2cncc(C3CCNCC3)n2)n[nH]1` ) reads -6.89

Field cytotoxicity at 70.5 h (entry `Cc1n[nH]c(C)c1Sc1ccccc1NC(=O)N1CCOCC1` ) reads -2.37

Field cytotoxicity at 70.5 h (entry CC(C)C1CN(C(=O)c2cccs2)CCS1 (centres undefined) ) reads -4.53

Field cytotoxicity at 70.5 h (entry O=C(Nc1cc(C(F)(F)F)c[nH]c1=O)C1CCCN1 (centres undefined) ) reads -10.7

Field cytotoxicity at 70.5 h (entry `CCc1nnc2n1CCN(Cc1csc(-c3ccccc3F)n1)C2` ) reads -7.77

Field cytotoxicity at 70.5 h (entry COc1ccccc1CC(C)N(C)S(C)(=O)=O (centres undefined) ) reads -6.61

Field cytotoxicity at 70.5 h (entry `COc1ccc(Nc2nc3c(C)nn(C)c3c(=O)n2C)cc1` ) reads 29.7

Field cytotoxicity at 70.5 h (entry `O=S(=O)(C1CC1)N1CCC2(CC1)CN(Cc1ccccn1)CCO2` ) reads 14.8
